The origin of these recorded values is patent US10047074B2.

STUDY_SYSTEM: TDO (A172) (Homo sapiens, UniProt P48775)
Construct: This assay utilised cancer cells which expressed either TDO (A172) or IDO (SKOV3); endogenous in cells; host or cells: A172 (human glioblastoma)
Sequence (P48775 whole entry): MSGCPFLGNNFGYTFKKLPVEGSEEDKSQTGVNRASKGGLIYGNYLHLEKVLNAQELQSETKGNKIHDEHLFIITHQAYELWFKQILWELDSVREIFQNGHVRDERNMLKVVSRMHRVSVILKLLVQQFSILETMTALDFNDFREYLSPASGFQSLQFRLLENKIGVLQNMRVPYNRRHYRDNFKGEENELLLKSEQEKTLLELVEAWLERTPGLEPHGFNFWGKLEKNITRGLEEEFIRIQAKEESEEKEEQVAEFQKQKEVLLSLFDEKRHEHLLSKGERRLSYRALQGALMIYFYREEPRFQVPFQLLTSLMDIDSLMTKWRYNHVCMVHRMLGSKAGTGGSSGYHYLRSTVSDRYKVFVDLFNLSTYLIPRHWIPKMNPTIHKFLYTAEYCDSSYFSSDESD
TEST_METHOD_NOTES: A172 Kynurenine cell based assay
MEASUREMENT_PARAMETERS: A172 human glioblastoma cells expressing TDO; kynurenine production, 48 hours
QUANTITY_MEASURED: A172 Kynurenine cell based assay pIC50

INSERT INTO measurements (molecule, observed_value) VALUES
  ('O=C(Cc1ccccc1)Nc1oncc1-c1ccccc1', '+ (+ = pIC50 4.00-4.49)'),
  ('O=C(O)CCC(=O)Nc1oncc1-c1ccccc1', '+ (+ = pIC50 4.00-4.49)'),
  ('Nc1oncc1-c1ccccc1', '+++ (+++ = pIC50 ≥ 5.50)'),
  ('O=C(Nc1oncc1-c1ccccc1)c1ccccc1 [Compound 49]', '+++ (+++ = pIC50 ≥ 5.50)');
